Cited source for all entries: patent US20260166039A1

Can you tell me IC50 for the items I'm about to list?
Biological target: Wee1 kinase domain (Homo sapiens, UniProt P30291)
Construct: Wee1 kinase domain was purchased from Carna (catalog #05-177); purchased Carna 05-177
Sequence (P30291 299-569 limits assumed): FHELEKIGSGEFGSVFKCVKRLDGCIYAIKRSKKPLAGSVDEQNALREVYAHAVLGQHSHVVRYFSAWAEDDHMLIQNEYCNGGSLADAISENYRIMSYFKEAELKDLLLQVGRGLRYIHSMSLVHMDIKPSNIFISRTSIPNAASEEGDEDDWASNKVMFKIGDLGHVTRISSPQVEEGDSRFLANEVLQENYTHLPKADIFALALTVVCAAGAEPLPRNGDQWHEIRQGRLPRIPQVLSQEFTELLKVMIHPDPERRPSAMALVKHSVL
Assay: Wee1 Kinase Biochemical Assay (ADP-Glo)
Conditions: class symbols; 1 nM Wee1 enzyme, 15 uM ATP, 4 hours at 25° C.

**Query** Query for Wee1 kinase domain (Homo sapiens, UniProt P30291): what IC50 does the record show for CN1CC2(C1)CN(c1ccc(Nc3ncc4c(n3)N(c3cccc(N5CCCC5=O)n3)[C@@H]3CC(C)(C)OC[C@]43C)cc1)C2 [Example 690] ?
**Result** < 0.01 µM

**Query** Lookup: IC50 / Wee1 kinase domain (Homo sapiens, UniProt P30291) / CN1CCN(c2ccc(Nc3ncc4c(n3)N(c3cccc(N5C(=O)OCC5(C)C)n3)[C@@H]3CC(C)(C)OC[C@]43C)cc2)CC1 (single isomer, unassigned) [Example 728]
**Result** < 0.01 µM

**Query** Give the reported IC50 for CN(C)Cc1cccc(N2c3nc(Nc4ccc(C(C)(C)C(=O)O)cc4)ncc3[C@]3(C)COC(C)(C)C[C@H]23)n1 [Example 610] (system: Wee1 kinase domain (Homo sapiens, UniProt P30291)).
**Result** ≥ 1 µM

**Query** Request - read-out IC50 | tested on Wee1 kinase domain (Homo sapiens, UniProt P30291) | compound Cc1cc(Nc2ncc3c(n2)N(c2cccc(N4CCOC4=O)n2)[C@H]2CC(C)(C)OC[C@@]32C)ccc1N1C[C@@H]2C[C@H]1CN2C [Example 655]
**Result** 0.01 to 0.1 µM

**Query** Form: Entry = CC1(C)C[C@@H]2N(c3cccc(C(C)(C)O)n3)c3nc(Nc4ccc(O[C@H]5CCNC5)cc4)ncc3[C@]2(C)CO1 (single isomer, unassigned) [Example 420] | System = Wee1 kinase domain (Homo sapiens, UniProt P30291) | IC50 = ____
**Result** 0.01 to 0.1 µM

**Query** Could you share what IC50 was measured for CN1CCN(c2ccc(Nc3ncc4c(n3)N(c3ccn(C5COC5)n3)[C@@H]3CC(C)(C)OC[C@]43C)cc2)CC1 (single isomer, unassigned) [Example 742] , tested on Wee1 kinase domain (Homo sapiens, UniProt P30291)?
**Result** < 0.01 µM

**Query** Short answer please: IC50, Wee1 kinase domain (Homo sapiens, UniProt P30291), entry CN[C@@H](c1cccc(N2c3nc(Nc4ccc(N5CCN(C)CC5)cc4)ncc3[C@@]3(C)COC(C)(C)C[C@@H]23)n1)C(F)(F)F [Example 756]
**Result** < 0.01 µM

**Query** Provide the documented IC50 with Wee1 kinase domain (Homo sapiens, UniProt P30291) as the system for CN[C@@H](C)c1cccc(N2c3nc(Nc4ccc(N5C[C@H]6C[C@@H]5CO6)cc4)ncc3[C@]3(C)COC(C)(C)C[C@H]23)n1 (single isomer, unassigned) [Example 579]
**Result** < 0.01 µM

**Query** Return IC50 measured with Wee1 kinase domain (Homo sapiens, UniProt P30291) given this compound: CN1CCN(c2cccc(Nc3ncc4c(n3)N(c3cccc(N=S(C)(C)=O)n3)[C@@H]3CC(C)(C)OC[C@]43C)c2)CC1 (single isomer, unassigned) [Example 486]
**Result** < 0.01 µM

**Query** Observed IC50 on Wee1 kinase domain (Homo sapiens, UniProt P30291) for C[C@H]1COC(=O)N1c1cccc(N2c3nc(Nc4ccc([C@@H]5CCN(C)C5)cc4)ncc3[C@@]3(C)COCC[C@@H]23)n1 [Example 794] , please.
**Result** < 0.01 µM

**Query** Which IC50 is reported with Wee1 kinase domain (Homo sapiens, UniProt P30291) for this entry: CNCc1cccc(N2c3nc(NC(=O)[C@@H]4C[C@H]4c4cccnc4)ncc3[C@@]3(C)COC(C)(C)C[C@@H]23)n1 [Example 768] ?
**Result** < 0.01 µM

**Query** Lab note: need IC50 for CN1C[C@H]2C[C@@H]1CN2c1ccc(Nc2ncc3c(n2)N(c2cccc(N4CCOC4=O)n2)[C@@H]2CC(C)(C)OC[C@]32C)cc1F [Example 668] on Wee1 kinase domain (Homo sapiens, UniProt P30291), anyone have it?
**Result** < 0.01 µM

**Query** Tell me reported IC50 for C[C@@H]1CN(c2ccc(Nc3ncc4c(n3)N(c3cccc(N=S(C)(C)=O)n3)[C@@H]3CC(C)(C)OC[C@]43C)cc2)CCN1C (single isomer, unassigned) [Example 499] , tested with Wee1 kinase domain (Homo sapiens, UniProt P30291).
**Result** < 0.01 µM

**Query** Any idea what IC50 came out for CN1CCN(c2ccc(Nc3ncc4c(n3)N(c3cccc(N5CCCC5=O)n3)[C@@H]3CC(C)(C)OC[C@]43C)cc2)CC1 (single isomer, unassigned) [Example 587] on Wee1 kinase domain (Homo sapiens, UniProt P30291)?
**Result** < 0.01 µM

**Query** Reported IC50 for Wee1 kinase domain (Homo sapiens, UniProt P30291), given CC1(C)C[C@@H]2N(c3cccc(C(C)(C)O)n3)c3nc(Nc4ccc(O[C@@H]5CCNC5)cc4)ncc3[C@]2(C)CO1 (single isomer, unassigned) [Example 417] ?
**Result** < 0.01 µM

**Query** Under Wee1 kinase domain (Homo sapiens, UniProt P30291): IC50 value of CN1C[C@H]2C[C@@H]1CN2c1ccc(Nc2ncc3c(n2)N(c2cccc(C(C)(C)O)n2)[C@@H]2CC(C)(C)OC[C@]32C)cc1 (single isomer, unassigned) [Example 413] ?
**Result** < 0.01 µM

**Query** Can you look up IC50 on Wee1 kinase domain (Homo sapiens, UniProt P30291) for CC1(C)C[C@H]2N(c3cccc(N4CCCC4=O)n3)c3nc(Nc4ccc(O[C@H]5CCNC5)cc4)ncc3[C@@]2(C)CO1 [Example 620] ?
**Result** < 0.01 µM

**Query** Please tell me: IC50 of CN1CCN(c2ccc(Nc3ncc4c(n3)N(c3cccc(N=S(C)(C)=O)n3)[C@@H]3CC(C)(C)OC[C@]43C)nc2)CC1 (single isomer, unassigned) [Example 510] , system Wee1 kinase domain (Homo sapiens, UniProt P30291)?
**Result** < 0.01 µM

**Query** Give recorded IC50 with Wee1 kinase domain (Homo sapiens, UniProt P30291) for the following compound: CN1C[C@@H]2C[C@H]1CN2c1ccc(Nc2ncc3c(n2)N(c2cccc(N4CCCC4=O)n2)[C@H]2CC(C)(C)OC[C@@]32C)cc1 [Example 628]
**Result** 0.1 to 1 µM

**Query** Checklist item: IC50 tested on Wee1 kinase domain (Homo sapiens, UniProt P30291), entry CC[C@@]1(O)CCc2ccc(N3c4nc(Nc5ccc(N6CCN(C)CC6)cc5)ncc4[C@@]4(C)COC(C)(C)C[C@@H]34)nc21 [Example 787] , value?
**Result** < 0.01 µM

**Query** Form field - read-out: IC50; system: Wee1 kinase domain (Homo sapiens, UniProt P30291); submitted item: CC1(C)C[C@@H]2N(c3ccc4c(n3)CCNC4)c3nc(Nc4ccc(N5CCOCC5)cc4)ncc3[C@]2(C)CO1 (single isomer, unassigned) [Example 561]
**Result** ≥ 1 µM

**Query** Return IC50 measured with Wee1 kinase domain (Homo sapiens, UniProt P30291) given this compound: CC1(C)C[C@@H]2N(c3cccc(N4CCOC4=O)n3)c3nc(Nc4ccc(O[C@H]5CCNC5)cc4)ncc3[C@]2(C)CO1 [Example 612]
**Result** 0.1 to 1 µM

**Query** Request: IC50, test system Wee1 kinase domain (Homo sapiens, UniProt P30291), entry CNCc1cccc(N2c3nc(NC(=O)C4CC4)ncc3[C@@]3(C)COC(C)(C)C[C@@H]23)n1 (single isomer, unassigned) [Example 762]
**Result** 0.01 to 0.1 µM

====

Target: Wee1 kinase domain (Homo sapiens)
Construct: Wee1 kinase domain was purchased from Carna (catalog #05-177); purchased Carna 05-177
Test: Wee1 Kinase Biochemical Assay (ADP-Glo)
Settings: Wee1 kinase domain, 15 uM ATP, ADP-Glo
result type: IC50

**Query** Look up IC50: C[C@H]1COC(=O)N1c1cccc(N2c3nc(Nc4ccc(C(C)(C)C)nc4)ncc3[C@@]3(C)COC(C)(C)C[C@@H]23)n1 (single isomer, unassigned) [Example 301]
**Result** < 10 nM

**Query** Fill in: IC50 of CN1CCC[C@H]1c1cccc(N2c3nc(Nc4ccn(C5CCOCC5)c(=O)c4)ncc3[C@@]3(C)COC(C)(C)C[C@@H]23)n1 (single isomer, unassigned) [Example 393] is ___
**Result** < 10 nM

**Query** Quick check: IC50 of CC(=O)Nc1ncc2c(n1)N(c1cccc(N=S(C)(C)=O)n1)[C@@H]1CC(C)(C)OC[C@]21C (single isomer, unassigned) [Example 398] ?
**Result** 10 to 100 nM

**Query** Which IC50 is reported for this compound? CNCc1cccc(N2c3nc(Nc4ccc(N5CCC(F)(F)CC5)cc4)ncc3[C@@]3(C)COC(C)(C)C[C@@H]23)n1 (single isomer, unassigned) [Example 16]
**Result** < 10 nM

**Query** # IC50 lookup, item CN=S1(=O)CCN(c2ccc(Nc3ncc4c(n3)N(c3cccc(CNC)n3)[C@H]3CC(C)(C)OC[C@@]43C)cc2)CC1 (single isomer, unassigned) [Example 66]
**Result** 100 to 1000 nM
